Ref: the DeepSol protein solubility set

ASSAY_OVERVIEW: soluble on expression in E. coli; label from the status in PepcDB or PDB records
PARAMETER_MEASURED: soluble on expression in E. coli

MGSDKIHHHHHHMVKLLLICLATIVMISCGSEQEKLTVYIPDTCTDTLQYEIYLPEEEGLNIFYDLCVTDSFCAFLDTRNDTLLKIFTATIPPALVGLGMKGEGPDDFLFPFFEKSIGREGKGKLSFIELNSWNKKIVAIHSAASPAPVAVSVVEAQQLPEMPVVRDYNETDSCVYGIDVDMQHGLFFIYDKHTARVKTVDYHRDIRSGYPEGHLSYLYESCLMVNQDAKAACMGLLNLNSLCFYDLKGNLMKEIVIGKELKSPEYDPEFLDFPNAPKYFISLCGTPNYLYALYNGFPGTSGKSKIMVFTWQGAPVAIYQTDVKLERIAVAPSGRYVLGLNITEEGGSDVLKFEL | not soluble
MSKNCKSCKDLKNRGIDVDCCFEIGDKECASLGDDKGFNGKKNDCQDMHDLNDCLLGRADSALDIHDDCDWKGYLKKLVSTLYNLQKMTICAICGIWKKIHWIEEQIEKIWKKIAKMEDDIDNIASQNWEINTRYGIQESTKGMSVSINRGNGDFIFRWKDWGDAEQTQYLGEGEIRGTVNFGMRPSSNASFDWQVRDVVIQNLSYKTNNIRSVPFTLHLYLTRAGEQEIYTKSHDTTKSFNDNINKTLKLNNNGNVGISSSSGWLQFLEFFNDGPVADDRANLQIEFKNNGKPKPPRYI | not soluble
